Target: CCDC6-RET (Homo sapiens, UniProt P07949+Q16204+Q96SW2)
Construct: CCDC6 (natural N-terminal fusion partner, UniProt Q16204); endogenous in cells; host or cells: TPC-1 (parental, papillary thyroid carcinoma)
Sequence (Q16204+P07949 fused): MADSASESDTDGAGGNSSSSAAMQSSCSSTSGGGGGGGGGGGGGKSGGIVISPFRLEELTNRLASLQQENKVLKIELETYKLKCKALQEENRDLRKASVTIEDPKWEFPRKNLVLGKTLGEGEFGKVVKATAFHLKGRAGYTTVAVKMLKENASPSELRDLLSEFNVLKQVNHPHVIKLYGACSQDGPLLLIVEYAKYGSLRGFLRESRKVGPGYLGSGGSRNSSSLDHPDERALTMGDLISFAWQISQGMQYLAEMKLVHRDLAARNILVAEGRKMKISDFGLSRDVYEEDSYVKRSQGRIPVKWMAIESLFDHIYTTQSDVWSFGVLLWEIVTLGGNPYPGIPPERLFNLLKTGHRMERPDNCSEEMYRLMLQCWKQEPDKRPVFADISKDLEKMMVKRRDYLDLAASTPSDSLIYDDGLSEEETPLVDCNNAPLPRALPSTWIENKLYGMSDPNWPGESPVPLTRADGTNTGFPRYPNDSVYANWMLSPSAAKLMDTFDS
Sequence (Q96SW2 whole entry, the tested form may be a part): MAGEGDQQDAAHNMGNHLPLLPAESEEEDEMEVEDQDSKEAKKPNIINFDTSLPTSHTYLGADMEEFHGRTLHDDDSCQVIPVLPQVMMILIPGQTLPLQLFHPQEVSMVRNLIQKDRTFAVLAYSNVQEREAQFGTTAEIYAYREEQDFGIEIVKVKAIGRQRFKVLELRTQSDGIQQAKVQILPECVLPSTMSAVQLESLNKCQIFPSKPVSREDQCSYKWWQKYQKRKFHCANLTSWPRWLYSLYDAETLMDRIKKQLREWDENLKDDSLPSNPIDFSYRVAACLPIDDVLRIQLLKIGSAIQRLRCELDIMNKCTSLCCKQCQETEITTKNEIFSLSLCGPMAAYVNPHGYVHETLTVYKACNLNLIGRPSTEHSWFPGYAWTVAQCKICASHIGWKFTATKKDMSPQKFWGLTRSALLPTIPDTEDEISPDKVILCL
Sequence (Q16531 whole entry partner, the tested form may be a part): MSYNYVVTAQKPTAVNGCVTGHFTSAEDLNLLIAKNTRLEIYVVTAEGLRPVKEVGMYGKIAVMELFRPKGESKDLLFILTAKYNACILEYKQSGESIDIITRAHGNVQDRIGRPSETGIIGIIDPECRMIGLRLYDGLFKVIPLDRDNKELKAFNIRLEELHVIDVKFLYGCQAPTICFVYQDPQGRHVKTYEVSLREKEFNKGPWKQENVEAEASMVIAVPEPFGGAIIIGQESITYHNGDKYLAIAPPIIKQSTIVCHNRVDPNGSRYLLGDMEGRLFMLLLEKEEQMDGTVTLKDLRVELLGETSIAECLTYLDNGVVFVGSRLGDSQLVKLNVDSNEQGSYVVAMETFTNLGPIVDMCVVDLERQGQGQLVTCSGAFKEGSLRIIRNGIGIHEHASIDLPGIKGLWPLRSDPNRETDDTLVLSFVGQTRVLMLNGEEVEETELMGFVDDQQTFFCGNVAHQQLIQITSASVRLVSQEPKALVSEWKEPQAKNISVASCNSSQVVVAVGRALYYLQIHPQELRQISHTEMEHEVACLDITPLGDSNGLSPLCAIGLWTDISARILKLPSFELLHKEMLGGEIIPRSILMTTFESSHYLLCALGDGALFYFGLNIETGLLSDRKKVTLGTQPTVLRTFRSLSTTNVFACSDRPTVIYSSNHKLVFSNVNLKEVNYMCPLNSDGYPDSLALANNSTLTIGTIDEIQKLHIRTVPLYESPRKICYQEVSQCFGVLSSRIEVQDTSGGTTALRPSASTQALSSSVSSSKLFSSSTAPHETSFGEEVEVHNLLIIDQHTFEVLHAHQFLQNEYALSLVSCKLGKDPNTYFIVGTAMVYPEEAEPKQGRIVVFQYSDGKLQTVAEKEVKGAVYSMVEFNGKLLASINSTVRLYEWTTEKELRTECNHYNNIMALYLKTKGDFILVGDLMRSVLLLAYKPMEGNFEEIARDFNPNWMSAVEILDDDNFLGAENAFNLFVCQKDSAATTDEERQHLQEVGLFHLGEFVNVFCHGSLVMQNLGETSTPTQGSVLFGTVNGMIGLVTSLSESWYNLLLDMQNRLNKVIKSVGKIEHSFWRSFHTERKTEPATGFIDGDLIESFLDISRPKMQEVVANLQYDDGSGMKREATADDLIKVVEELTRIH
Experiment: Cellular RET degradation, AlphaLISA, TPC-1 cell line
Type: cell-based
Conditions: TPC1, human, 24 h, read-out: Cell Density TPC-1/CCDC6-RET Ymax %
Below, each entry is listed with its recorded Dmax.

Compound: CCOc1cc(-c2ccc(N3CCC(CN4CCN(C(=O)CN5CCN(c6ccc7c(c6)CN(C6CCC(=O)NC6=O)C7=O)CC5)CC4)(NC(=O)c4cc(F)ccc4F)CC3)nc2)c2c(C#N)cnn2c1 (centres unmarked) [Example 6]
Dmax: > 90%
//
Compound: CCOc1cc(-c2ccc(N3CCC(NC(=O)c4cc(F)ccc4F)(C(=O)NCCCCCCCCCCNc4cccc5c(N6CCC(=O)NC6=O)nn(C)c45)CC3)nc2)c2c(C#N)cnn2c1 [Example 150]
Dmax: > 90%
//
Compound: CCOc1cc(-c2ccc(N3CCC(CN4CCN(C(=O)C5CC6(C5)CC(C(=O)N5CCN(c7ccc8c(c7)CN(C7CCC(=O)NC7=O)C8=O)CC5)C6)CC4)(NC(=O)c4cc(F)ccc4F)CC3)nc2)c2c(C#N)cnn2c1 (centres unmarked) [Example 85]
Dmax: 60 to 90%

Query: Dmax; subject: CCOc1cc(-c2ccc(N3CCC(NC(=O)c4cc(F)ccc4F)(C(=O)NCCCCCCN4CCN(c5ccc6c(c5)C(=O)N(C5CCC(=O)NC5=O)C6)CC4)CC3)nc2)c2c(C#N)cnn2c1 (centres unmarked) [Example 160] > 90%

Note, next up: CCOc1cc(-c2ccc(N3CCC(CN4CCC5(CC4)CCN(C(=O)Cc4ccc6c(c4)CN(C4CCC(=O)NC4=O)C6=O)CC5)(NC(=O)c4cc(F)ccc4F)CC3)nc2)c2c(C#N)cnn2c1 (centres unmarked) [Example 98] > 90%

* * *

Molecular target: CCDC6-RET (Homo sapiens, UniProt P07949+Q16204+Q96SW2)
Construct: CCDC6 (natural N-terminal fusion partner, UniProt Q16204); endogenous in cells; host or cells: TPC-1 (parental, papillary thyroid carcinoma)
Test: Cellular RET degradation, AlphaLISA, TPC-1 cell line
Format: cell-based
Details: TPC1, human, 24 h, read-out: Cell Density TPC-1/CCDC6-RET Ymax %
Protocol: Cellular RET degradation compound potency was determined using the bead-based luminescent amplification assay-AlphaLISA Surefire Ultra Detection Kit (Perkin-Elmer). […] Donor bead addition was performed in the dark and incubated for >1 hr before AlphaLISA luminescence was measured on an Envision plate reader with an Alphascreen aperture at RT (excitation 680 nm, emission 615 nm). RET protein abundance (and therefore degradation) directly corresponds to luminescence intensity. […]
Assay Readout: Dmax

Compound: CCOc1cc(-c2ccc(N3CCC(CN4CCN(C(=O)CCOCCNc5ccc6c(N7CCC(=O)NC7=O)nn(C)c6c5)CC4)(NC(=O)c4cc(F)ccc4F)CC3)nc2)c2c(C#N)cnn2c1
Value: 60 to 90%

Compound: CCOc1cc(-c2ccc(N3CCC(CN(C)C(=O)CCCCN4CCC(c5ccc6c(c5)C(=O)N(C5CCC(=O)NC5=O)C6)CC4)(NC(=O)c4cc(F)ccc4F)CC3)nc2)c2c(C#N)cnn2c1 (centres unmarked)
Value: 60 to 90%

Compound: CCOc1cc(-c2ccc(N3CCC(NC(=O)c4cc(F)ccc4F)(C(=O)NCCN4CCC(c5ccc6c(c5)CN(C5CCC(=O)NC5=O)C6=O)CC4)CC3)nc2)c2c(C#N)cnn2c1 (centres unmarked)
Value: 60 to 90%

Compound: CCOc1cc(-c2ccc(N3CCC(CN4CCN(CCC(=O)N5CCC6(CC5)CCN(c5ccc7c(c5)CN(C5CCC(=O)NC5=O)C7=O)CC6)CC4)(NC(=O)c4cc(F)ccc4F)CC3)nc2)c2c(C#N)cnn2c1 (centres unmarked)
Value: > 90%

Here's the next entry for you.
Query: Dmax; subject: CCOc1cc(-c2ccc(N3CCC(CN4CCC5(CC4)CCN(C(=O)COc4ccc6c(c4)CN(C4CCC(=O)NC4=O)C6=O)CC5)(NC(=O)c4cc(F)ccc4F)CC3)nc2)c2c(C#N)cnn2c1 (centres unmarked) 60 to 90%

* * *

Target: CCDC6-RET (Homo sapiens, UniProt P07949+Q16204+Q96SW2)
Construct: CCDC6 (natural N-terminal fusion partner, UniProt Q16204); endogenous in cells; host or cells: TPC-1 (parental, papillary thyroid carcinoma)
Experiment: Cellular RET degradation, AlphaLISA, TPC-1 cell line
Type: cell-based
Details: TPC1, human, 24 h, read-out: Cell Density TPC-1/CCDC6-RET Ymax %
Below, each entry is listed with its recorded Dmax.

Compound: CCOc1cc(-c2ccc(N3CCC(CN4CC5(C4)CN(C(=O)COc4ccc6c(c4)CN(C4CCC(=O)NC4=O)C6=O)C5)(NC(=O)c4cc(F)ccc4F)CC3)nc2)c2c(C#N)cnn2c1 (centres unmarked) [Example 97]
Value: 60 to 90%

Here's the next entry for you.
Query: Dmax; subject: CCOc1cc(-c2ccc(N3CCC(CN4CCN(C5CN(C(=O)COc6ccc7c(c6)CN(C6CCC(=O)NC6=O)C7=O)C5)CC4)(NC(=O)c4cc(F)ccc4F)CC3)nc2)c2c(C#N)cnn2c1 (centres unmarked) [Example 65] 60 to 90%

* * *

Target: CCDC6-RET (Homo sapiens, UniProt P07949+Q16204+Q96SW2)
Construct: CCDC6 (natural N-terminal fusion partner, UniProt Q16204); endogenous in cells; host or cells: TPC-1 (parental, papillary thyroid carcinoma)
Test: Cellular RET degradation, AlphaLISA, TPC-1 cell line
Type: cell-based
Conditions: read-out: Cell Density TPC-1/CCDC6-RET DC50; half-maximal degradation concentration; TPC-1 (CCDC6-RET), 24 hrs
Below, each entry is listed with its recorded DC50.

// worked examples, DC50 included
Compound: CCOc1cc(-c2ccc(N3CCC(CN4CCC5(CC4)CCN(C(=O)COc4ccc6c(c4)CN(C4CCC(=O)NC4=O)C6=O)CC5)(NC(=O)c4cc(F)ccc4F)CC3)nc2)c2c(C#N)cnn2c1 (centres unmarked)
DC50: < 2 nM
--
Compound: CCOc1cc(-c2ccc(N3CCC(Cc4ccccc4)(NC(=O)CN4CCC(CN5CCC(c6ccc7c(c6)C(=O)N(C6CCC(=O)NC6=O)C7)CC5)CC4)CC3)nc2)c2c(C#N)cnn2c1 (centres unmarked)
DC50: 100 to 2000 nM
--
Compound: CCOc1cc(-c2ccc(N3CCC(CN(C)C(=O)CCCCN4CCC(c5ccc6c(c5)C(=O)N(C5CCC(=O)NC5=O)C6)CC4)(NC(=O)c4cc(F)ccc4F)CC3)nc2)c2c(C#N)cnn2c1 (centres unmarked)
DC50: 2 to 10 nM
--
Compound: CCOc1cc(-c2ccc(N3CCC(Cc4ccccc4)(NC(=O)N4CCC(N5CCC(c6ccc7c(c6)C(=O)N(C6CCC(=O)NC6=O)C7)CC5)CC4)CC3)nc2)c2c(C#N)cnn2c1 (centres unmarked)
DC50: 2 to 10 nM

Here's the next entry for you.
Query: DC50; subject: CCOc1cc(-c2ccc(N3CCC(CN4CCN(C(=O)CN5CCN(c6ccc7c(c6)CN(C6CCC(=O)NC6=O)C7=O)CC5)CC4)(NC(=O)c4cc(F)ccc4F)CC3)nc2)c2c(C#N)cnn2c1 (centres unmarked) 2 to 10 nM

* * *

Target: CCDC6-RET (Homo sapiens, UniProt P07949+Q16204+Q96SW2)
Construct: CCDC6 (natural N-terminal fusion partner, UniProt Q16204); endogenous in cells; host or cells: TPC-1 (parental, papillary thyroid carcinoma)
Test: Cellular RET degradation, AlphaLISA, TPC-1 cell line
Format: cell-based
Settings: TPC1, human, 24 h, read-out: Cell Density TPC-1/CCDC6-RET Ymax %
Below, each entry is listed with its recorded Dmax.

// worked examples, Dmax included
Compound: CCOc1cc(-c2ccc(N3CCC(CN4CCN(C(=O)CCCCCCN5CCN(c6ccc7c(c6)C(=O)N(C6CCC(=O)NC6=O)C7)CC5)CC4)(NC(=O)c4cc(F)ccc4F)CC3)nc2)c2c(C#N)cnn2c1 (stereo not shown)
Dmax: > 90%
--
Compound: CCOc1cc(-c2ccc(N3CCC(NC(=O)c4cc(F)ccc4F)(C(=O)NCCCCN4CCC(c5ccc6c(c5)C(=O)N(C5CCC(=O)NC5=O)C6)CC4)CC3)nc2)c2c(C#N)cnn2c1 (stereo not shown)
Dmax: 60 to 90%
--
Compound: CCOc1cc(-c2ccc(N3CCC(CN4CCN(C(=O)CCCN5CCN(c6ccc7c(N8CCC(=O)NC8=O)nn(C)c7c6)CC5)CC4)(NC(=O)c4cc(F)ccc4F)CC3)nc2)c2c(C#N)cnn2c1
Dmax: > 90%
--
Compound: CCOc1cc(-c2ccc(N3CCC(C)(CN4CCN(C(=O)CCN5CCC(c6ccc7c(c6)CN(C6CCC(=O)NC6=O)C7=O)CC5)CC4)CC3)nc2)c2c(C#N)cnn2c1 (stereo not shown)
Dmax: 60 to 90%

Query: Dmax; subject: CCOc1cc(-c2ccc(N3CCC(C)(CN4CCN(C(=O)CCN5CCC(c6ccc7c(c6)C(=O)N(C6CCC(=O)NC6=O)C7)CC5)CC4)CC3)nc2)c2c(C#N)cnn2c1 (stereo not shown) 60 to 90%

Note, next up: CCOc1cc(-c2ccc(N3CCC(NC(=O)c4cc(F)ccc4F)(C(=O)NCCCCCCNc4cccc5c(N6CCC(=O)NC6=O)nn(C)c45)CC3)nc2)c2c(C#N)cnn2c1 > 90%

Note, next up: CCOc1cc(-c2ccc(N3CCC(CN4CCN(C(=O)CCCCCCCCCCCCCCNC(=O)COc5cccc6c5CN(C5CCC(=O)NC5=O)C6=O)CC4)(NC(=O)c4cc(F)ccc4F)CC3)nc2)c2c(C#N)cnn2c1 (stereo not shown) 60 to 90%

Note, next up: CCOc1cc(-c2ccc(N3CCC(CN4CCN(CCOCCC(=O)N5CCC(c6ccc7c(c6)C(=O)N(C6CCC(=O)NC6=O)C7)CC5)CC4)(NC(=O)c4cc(F)ccc4F)CC3)nc2)c2c(C#N)cnn2c1 (stereo not shown) > 90%

Note, next up: CCOc1cc(-c2ccc(N3CCC(NC(=O)c4cc(F)ccc4F)(C(=O)NCCCCN4CCN(c5ccc6c(c5)C(=O)N(C5CCC(=O)NC5=O)C6)CC4)CC3)nc2)c2c(C#N)cnn2c1 (stereo not shown) 60 to 90%

Note, next up: CCOc1cc(-c2ccc(N3CCC(CN4CCN(C(=O)CCCCNC(=O)COc5cccc6c5CN(C5CCC(=O)NC5=O)C6=O)CC4)(NC(=O)c4cc(F)ccc4F)CC3)nc2)c2c(C#N)cnn2c1 (stereo not shown) > 90%
